As shown below, each of these binders has a reported Neutralization potency, ranking from 1 = the best to 4 (HEK-Blue IL-17 reporter cells) value.
Study system: recombinant human IL-17A/F (produced in CHO cells, R&D Systems 5837-IL) (human, UniProt Q16552 24-155; Q96PD4 31-163, limits assumed)
Sequence (Q16552 24-155 limits assumed, chain 1 of 2): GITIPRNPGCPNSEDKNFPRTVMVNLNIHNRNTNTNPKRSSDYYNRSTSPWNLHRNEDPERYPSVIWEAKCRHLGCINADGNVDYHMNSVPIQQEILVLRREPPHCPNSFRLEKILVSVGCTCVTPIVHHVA
Sequence (Q96PD4 31-163 limits assumed, chain 2 of 2): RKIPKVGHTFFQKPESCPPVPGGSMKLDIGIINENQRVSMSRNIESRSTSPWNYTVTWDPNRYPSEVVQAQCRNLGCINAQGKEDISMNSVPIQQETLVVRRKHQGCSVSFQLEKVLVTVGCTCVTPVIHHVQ
Experiment summary: cell-based or functional assay
Result type: Neutralization potency, ranking from 1 = the best to 4 (HEK-Blue IL-17 reporter cells) (rank)

Binder	Observed measurement
Bm42A03 (VHH, Class C, second generation) VHH: QVQLVESGGGLVQPGGSLRLSCVASGFTFSSFAMSWYRQDPGKERKLVAAITNDGGTTFYSDLVKGRFTISRDNTKNTVYLQMNNVKPDDAAVYYCMAVRGLYGSNWYDYPFELWGQGTQVTVSS	1
Bm42B11 (VHH, Class A, second generation) VHH: QVQLVESGGDLVQAGGSLRLSCSVSGLRVSSYAMGWFRQAPGKEREFVAAISWVGGDTRYADSVKGRFTMSRDNAKKQVYLEMNSLKPEDTAVYYCNDMPYGMETRMDDYASWGQGTQVTVSS	1
Bm44G10 (VHH, Class C, second generation) VHH: QVQLVESGGGLVQPGGSLRLSCVASGFTFSSFAMSWYRQDPGRERKLVAAITNDGGTTFYSDLVKGRFTISRDNTKNTVYLQMNNVKPDDAAVYYCMAVRGLYGSNWYDYPFELWGQGTQVTVSS	1
Bm44B11 (VHH, Class A, second generation) VHH: QVQLVESGGGLVQAGGSLNLSCVISRRTPSGYAMGWFRQASGKEREFVAAISWIGGGAVYADSVKGRFTMSRDNAKNTVYLQMNSLKPEDTAVYYCNDMPYGLDTTMDDYDYWGQGTQVTVSS	1
VHH664 (VHH, Control VHH of Ablynx, disclosed in WO2012156219) VHH: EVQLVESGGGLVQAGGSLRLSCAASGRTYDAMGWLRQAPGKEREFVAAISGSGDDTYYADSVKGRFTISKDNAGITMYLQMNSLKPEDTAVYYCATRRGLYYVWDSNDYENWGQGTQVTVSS	2
Re42B04a (VHH, Class A; Monovalent VHH) VHH: QVQLVESGGGLVQVGGSLRLSCEVSGLPVSSYAMGWFRQAPEKEREFVAAISWIGGDSRYAHFVKGRFTISRDNAKNTVHLQMDSLKPEDTAVYYCNDMPYGLDTRMDEYEYWGQGTQVTVSS	1

Cited source: patent US20260209334A1
